Target: cyno IL-17A (cynomolgus monkey, UniProt A0A2K5TTB0 24-155)
Sequence (A0A2K5TTB0 entry or part of it): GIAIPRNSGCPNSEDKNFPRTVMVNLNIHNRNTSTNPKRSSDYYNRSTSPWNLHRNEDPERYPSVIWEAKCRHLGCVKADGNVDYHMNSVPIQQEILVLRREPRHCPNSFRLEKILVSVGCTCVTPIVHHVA
Test: SPR Biacore, captured binder
readout kind: kon (M⁻¹ s⁻¹)

* IL17-G9-4 (antibody, V domains shown, converted into IgG) VH: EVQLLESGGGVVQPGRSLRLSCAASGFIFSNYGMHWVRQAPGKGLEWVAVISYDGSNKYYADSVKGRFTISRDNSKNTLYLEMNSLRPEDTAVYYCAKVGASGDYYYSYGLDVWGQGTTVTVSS VL: QSVLTQPPSASGTPGQTVSISCSGRQSNIGRHYVDWYQQVPGAAPKLLMYYDSIRPSGVPDRFSGSQSGTSASLAISGLQSEDEADYYCATWDDSLGGYVFGSGTKVTVLG | 265000
* IL17-G9-2 (antibody, V domains shown) VH: EVQLLESGGGVVQPGRSLRLSCAASGFIFRNYGMHWVRQAPGKGLEWVAVISYDGSNKYYADSVKGRFTISRDNSKNTLYLEMNSLRPEDTAVYYCAKVGASGDYYYSYGLDVWGQGTTVTVSS VL: QSVLTQPPSASGTPGQTVSISCSGSNSNIGRHPVDWYQQVPGAAPKLLIYYDDQRPSGVPDRFSGSQSGTSASLAISGLQSEDEADYYCATWDDSLGGYVFGSGTKVTVLG | 371000
